Numbers sourced from ChEMBL document CHEMBL4842397.

TEST_DESCRIPTION: Volume of distribution at steady state in BALB/c mouse at 0.7 mg/kg, iv
Format: ADME, organism-based
CONDITION_SUMMARY: in vivo, read-out: Vdss
VALUE_TYPE: Vd (L/kg)
Field: numeric (L/kg). Do not append units.

Value of Vd reported for the molecule COc1ncc2cc1NS(=O)(=O)c1ccc(F)c(c1)C(=O)NCC1=CC=C(S1)c1ncnc3c1SC2=C3C is 0.26

* * *

TEST_DESCRIPTION: Volume of distribution at steady state in BALB/c mouse at 1 mg/kg, iv
Format: ADME, organism-based
CONDITION_SUMMARY: in vivo
VALUE_TYPE: Vd (L/kg)
Field: numeric (L/kg). Do not append units.

Value of Vd reported for the compound COc1ncc2cc1NS(=O)(=O)c1cccc(c1)C(=O)NCC1=CC=C(S1)c1ncnc3c1SC2=C3C is 0.31
